Test system: Nucleic Acid
Assay: Thermal denaturation in sonicated poly(dA)-poly(dT) homopolymer (AT)
Type: nucleic-acid assay
Tm strictly less than 30 °C = Criterion met. Otherwise Criterion not met.

Prompt line: # strict comparison: is reported Tm < 30 °C? input = O=[N+]([O-])c1ccc2[nH]c(CCc3nc4cc([N+](=O)[O-])ccc4[nH]3)nc2c1
Response line: Criterion met

Prompt line: Hello, is Tm of the following molecule strictly smaller than 30 °C? CN1CCN(c2ccc3[nH]c(-c4ccc5[nH]c(-c6ccc(O)cc6)nc5c4)nc3c2)CC1
Response line: Criterion not met

Prompt line: I wonder whether N=C(N)c1ccc2[nH]c(-c3ccc(-c4nc5cc(C(=N)N)ccc5[nH]4)cc3)nc2c1 has Tm below 30 °C. Can you tell?
Response line: Criterion met

Prompt line: Does c1cc2[nH]c(CCc3nc4cc(C5=NCCN5)ccc4[nH]3)nc2cc1C1=NCCN1 have Tm strictly under 30 °C?
Response line: Criterion not met

Prompt line: Does this molecule meet the criterion Tm < 30 °C? c1c[nH]c(-c2ccc(-c3cc4ccc(-c5ncc[nH]5)cc4[nH]3)cc2)n1
Response line: Criterion not met
